I'd be grateful if you could share measured growth for these entries.
Tested on: OVCAR-3 ovarian
test.name: NCI-60 one-dose screen, 48 h (100 = growth as untreated, 0 = no growth, -100 = all killed)
assay.conditions: 10 µM unless noted
This is part of a sample that, as a whole, favours compounds with a hit. Of some 83,000 tested, about 20% had one in any assay.
One number for each entry, in %.

Previously resolved entries follow.
{"columns": ["compound.structure.string", "growth / %"],
 "data": [
  ["NC(=Nc1nc(-c2ccccn2)cc2ccccc12)c1ccccn1", 29.3],
  ["S=C=Nc1ccc(N2CCOCC2)cc1", 109],
  ["Oc1ccc2ccccc2c1N=Nc1ccccn1", 20.7],
  ["O=C1C=CC(O)=CC1=P(c1ccccc1)(c1ccccc1)c1ccccc1", 102],
  ["O=[N+]([O-])c1cc(-c2ccccc2)c(O)c([N+](=O)[O-])c1", 69.7]
]}

// input: 2 compounds below; output: growth for each
1. Cc1ccc(NC2=CC(=O)C(=O)c3ccccc32)cc1
2. Cc1ccc2c(c1)sc(-c1ccc(N(C)C)cc1)[n+]2C

[13.7, -14.8]

###

System: CCRF-CEM leukemia
test.name: NCI-60 one-dose screen, 48 h (100 = growth as untreated, 0 = no growth, -100 = all killed)
assay.conditions: 10 µM unless noted
About 83,000 compounds went through this panel and 20% of them were active in at least one assay; those are over-represented in the sample as a whole.
growth less than 20% is true (1); growth greater than or equal to 20% is false (0).

{"columns": ["compound", "answer.label"],
 "data": [
  ["N#CC(=C1SCS1)[N+](=O)[O-]", "true (1)"]
]}

Does the reported growth of the following compound sit strictly below 20%? `COc1c(C)c2c(c(O)c1C/C=C(\C)CCC(=O)O)C(=O)OC2`
false (0)

Now the same for `CCC(=O)c1cc([N+](=O)[O-])c(Br)s1`
true (1)

Now the same for `c1csc(-c2[nH]nc3c2CCc2ccccc2-3)c1`
false (0)

Now the same for O=C(c1ccccc1)C(Br)[N+](=O)[O-] (stereo unspecified)
false (0)

Now the same for `Oc1ccc(Cl)cc1Cc1cc(Cl)ccc1O`
false (0)

Now the same for `O=C1c2ccccc2Cc2cccc(Cl)c21`
false (0)

Now the same for `NC1=C(Br)C(=O)c2ncccc2C1=O`
true (1)

Now the same for CC1CC(C)(C)OB(OC(C)CC(C)(C)OB2OC(C)CC(C)(C)O2)O1 (stereo unspecified)
false (0)

Now the same for `CCCCCCCCCCCCCCCCSC(=NCC)NCC`
true (1)

Now the same for `CN(C)c1ccc(/C=C/c2cc[n+](C)c(/C=C/c3ccc(N(C)C)cc3)c2)cc1`
true (1)

###

System: UO-31 renal
test.name: NCI-60 one-dose screen, 48 h (100 = growth as untreated, 0 = no growth, -100 = all killed)
assay.conditions: 10 µM unless noted
Compounds without any hit were thinned out: in the full panel of roughly 83,000, 20% have a hit.
growth less than 30% is 1 (yes); growth greater than or equal to 30% is 0 (no).

Observe how each entry below is paired with its result.
{"columns": ["compound", "answer.label"],
 "data": [
  ["Clc1ccc(Cc2nc3ccccc3s2)cc1", "0 (no)"],
  ["O=C(/C=C/C(Cl)(Cl)Cl)Nc1ccc(Cl)cc1", "1 (yes)"],
  ["CCOc1ccc(Nc2nc3c(s2)C(=O)c2ccccc2C3=O)cc1", "0 (no)"],
  ["Oc1ccc(Br)cc1Sc1cc(Br)ccc1O", "0 (no)"],
  ["CCCCCCCCCCCC1N=C(N)N=C(N)N1c1cccc(Br)c1 (centres undefined)", "0 (no)"]
]}

Does the reported growth of the following compound sit strictly below 30%? `C[n+]1ccccc1C[n+]1ccccc1`
0 (no)

Now the same for CCC(C)C(N)C(=O)NC(CC(N)=O)C(=O)NC(CC(C)C)C(=O)NC(CCCCN)C(=O)NC(C)C(=O)NC(CC(C)C)C(=O)NC(C)C(=O)NC(C)C(=O)NC(CC(C)C)C(=O)NC(C)C(=O)NC(CCCCN)C(=O)NC(CCCCN)C(=O)NC(C(=O)NC(CC(C)C)C(N)=O)C(C)CC (centres undefined)
0 (no)

Now the same for `CCOC(=O)/C(=C\c1ccc2ccccc2c1)P(=O)(OCC)OCC`
1 (yes)

Now the same for `CCOc1cc(F)c([N+](=O)[O-])cc1[N+](=O)[O-]`
0 (no)

Now the same for CCOc1ccc(C(C[N+](=O)[O-])Sc2ccccc2N)cc1 (centres undefined)
1 (yes)

Now the same for `CCc1cnc2ccccc2c1/C=C/c1ccc(N(C)C)cc1`
0 (no)

Now the same for `Oc1ccccc1N=Cc1ccccc1`
0 (no)

Now the same for `Nc1ccc(Oc2ccccc2)c(Cl)c1`
0 (no)

Now the same for `COC(=O)c1ccc(=O)c2nc3/c(=C/O)c(O)cc(=O)c3[nH]c12`
1 (yes)

###

Tested on: MDA-MB-231 breast
test.name: NCI-60 one-dose screen, 48 h (100 = growth as untreated, 0 = no growth, -100 = all killed)
assay.conditions: 10 µM unless noted
The panel holds about 83,000 compounds, 20% with a hit somewhere; the sample as a whole holds those more often.
I'd be grateful if you could share measured growth for these entries.
One number for each entry, in %.

Previously resolved entries follow.
{"columns": ["molecule", "unit.of.measurement", "growth"],
 "data": [
  ["CCCCCCCCCCCC1N=C(N)N=C(N)N1c1cccc(Br)c1 (stereo not given)", "%", -48.1],
  ["CC(C)Nc1ccc(Nc2ccc(NC(C)C)cc2)cc1", "%", 33.3],
  ["CCOc1ccc(C(C[N+](=O)[O-])Sc2ccccc2N)cc1 (stereo not given)", "%", 18.4],
  ["Clc1ccc(Cc2nc3ccccc3s2)cc1", "%", 74]
]}

Looking for the measured growth of `[Cl-].[Rh+3].c1ccc(-c2ccnc3c2ccc2c(-c4ccccc4)ccnc23)cc1.c1ccc(-c2ccnc3c2ccc2c(-c4ccccc4)ccnc23)cc1.c1ccc(-c2ccnc3c2ccc2c(-c4ccccc4)ccnc23)cc1` , can you help?
93.6

###

Test system: TK-10 renal
test.name: NCI-60 one-dose screen, 48 h (100 = growth as untreated, 0 = no growth, -100 = all killed)
assay.conditions: 10 µM unless noted
This is part of a sample that, as a whole, favours compounds with a hit. Of some 83,000 tested, about 20% had one in any assay.
recorded.endpoint: growth (%)
One number for each entry, in %.

{"columns": ["molecule", "unit.of.measurement", "growth"],
 "data": [
  ["COC(=O)[C@]1(C)CCC[C@]2(C)c3ccc(C(C)C)cc3C(=O)[C@@H](Br)[C@@H]12", "%", 102],
  ["O=C(CBr)c1ccc(OC(=O)c2ccccc2)cc1", "%", 117]
]}

// input: 4 molecules below; output: growth for each
1. OC(c1cc(-c2ccc(Cl)cc2)nc2c(Cl)cccc12)C1CCCCN1 (stereo not drawn)
2. S=C(SSC(=S)N1CCOCC1)N1CCOCC1
3. CC[n+]1ccc(Nc2ccc(NC(=O)c3ccc(Nc4cc[n+](CC)c5ccc([N+](=O)[O-])cc45)cc3)cc2)cc1
4. Nc1nc(N)c2cc(Sc3cccc(C(F)(F)F)c3)ccc2n1

1: -75.9; 2: 95.7; 3: 152; 4: 43.5

// input: 3 molecules below; output: growth for each
1. COc1ccc(/C=C2/C(=O)ON=C2C)cc1
2. CN(C)CC(C)(CN(C)C)C(=O)/C=C/c1c(Cl)cccc1Cl
3. NNc1ccc(Cl)cc1Cl

96.5
-8.98
94.3

// input: 8 molecules below; output: growth for each
1. CCSc1nc2ccccc2o1
2. S=c1[nH]c2cc(Cl)ccc2s1
3. CCCCCCC1N=C(N)N=C(N)N1c1cccc(Cl)c1 (stereo not drawn)
4. O=C(c1ccc(O)c(Br)c1)c1ccc(O)c(Br)c1
5. CCc1cnc2ccccc2c1/C=C/c1ccc(N(C)C)cc1
6. O=C(c1ccccc1)C(Br)[N+](=O)[O-] (stereo not drawn)
7. CCOc1ccc(C(CN2CCOCC2)C(C)=O)cc1OC (stereo not drawn)
8. CCOC(=O)C1=NN(c2ccccc2)C(=O)/C1=C\N1C(=O)/C(=C/c2cccc(O)c2)SC1=S

102
97.6
67.6
99.4
57.1
106
49.8
117

###

System: NCI-H226 lung
test.name: NCI-60 one-dose screen, 48 h
assay.conditions: 10 µM unless noted
This is part of a sample that, as a whole, favours compounds with a hit. Of some 83,000 tested, about 20% had one in any assay. The source made the active and inactive calls. How the source made its calls: active means growth percent below 10; inactive means the rest.
A correct response names exactly one class from t (active), f (inactive)

Observe how each entry below is paired with its result.
{"columns": ["compound", "answer.label"],
 "data": [
  ["O=C(c1ccccc1)c1ccc(O)c2ncccc12", "f"],
  ["CCN1/C(=C/C(C)=C/c2sc3ccc4ccccc4c3[n+]2CC)Sc2ccc3ccccc3c21", "t"],
  ["COc1c(C)c2c(c(O)c1C/C=C(\\C)CCC(=O)O)C(=O)OC2", "f"],
  ["COc1cc(/C=C/c2ccnc3ccccc23)cc(OC)c1OC", "f"],
  ["C/C=C/c1cc2c(c(=O)o1)C(=O)[C@@H](O)[C@H](C)O2", "f"],
  ["C/C(=N/NC(N)=S)c1ccc(C)cc1", "f"]
]}

Answer briefly: the call reported for `Cc1cc2nc(CC(=O)c3ccncc3)c(=O)[nH]c2cc1C` in this assay.
f

Now the same for `N#CCc1cccc2ccccc12`
f

Now the same for CCC1CCCCN1C(=S)N/N=C(\C)c1ccccn1 (centres undefined)
t

Now the same for `Cc1ccc2c(c1)sc(-c1ccc(N(C)C)cc1)[n+]2C`
f

Now the same for `Cn1c(-c2ccccc2)c(/C=C/C2=[N+](C)c3ccccc3C2(C)C)c2ccccc21`
f

Now the same for `CC(C)(C)c1ccc(O)c(-c2ccccc2)c1`
f

Now the same for `COc1cc(/C=C2\SC(=S)N(/C=C/c3nc4ccccc4[nH]c3=O)C2=O)cc(OC)c1OC`
f

Now the same for `c1csc(-c2[nH]nc3c2CCc2ccccc2-3)c1`
f
